assayed target: PACAP-R3 (Homo sapiens)
Sequence (P41587 24-438): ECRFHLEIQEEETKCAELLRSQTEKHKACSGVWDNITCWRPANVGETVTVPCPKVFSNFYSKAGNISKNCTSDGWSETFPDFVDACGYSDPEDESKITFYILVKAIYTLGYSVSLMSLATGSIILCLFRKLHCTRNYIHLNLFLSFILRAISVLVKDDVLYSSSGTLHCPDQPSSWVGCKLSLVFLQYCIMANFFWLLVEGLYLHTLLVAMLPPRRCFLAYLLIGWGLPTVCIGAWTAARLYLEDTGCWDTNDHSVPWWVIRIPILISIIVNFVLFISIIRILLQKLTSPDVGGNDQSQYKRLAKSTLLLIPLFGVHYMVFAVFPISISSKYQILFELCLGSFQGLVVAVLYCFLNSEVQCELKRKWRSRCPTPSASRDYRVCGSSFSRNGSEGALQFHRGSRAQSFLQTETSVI
method summary: Cyclic AMP SPA on CHO cells expressing PACAP R3
Assay type: cell-based
Design: expressed in transfected cells; host or cells: CHO cells (Geneticin selection)
condition notes: cAMP SPA, CHO cells transfected with PACAP-R3; concentration at which 50% of maximum PACAP27 activity is achieved; NA = no detectable activities; read-out: R3 EC50
pEC50: −log10 of the molar value. No end group written: not given here.

[
  {
    "substance": "H-HSDAVFTDNYTRLRKQMAGKKYLNSIRNRI [rR3P190]",
    "assayed target": "PACAP-R3 (Homo sapiens)",
    "pEC50": 8.66
  },
  {
    "substance": "HSDAVFTDNYTRLRKQMAAKKYLNSIKNKR [Peptide R3P65]",
    "assayed target": "PACAP-R3 (Homo sapiens)",
    "pEC50": 9.22
  },
  {
    "substance": "H-HSDAVFTDNYTRLRKQMAAKKYLNSIDNKR [Peptide R3P118]",
    "assayed target": "PACAP-R3 (Homo sapiens)",
    "pEC50": 9.30
  },
  {
    "substance": "H-HSDAVFTDNYTRLRKQMAAKKYLNDIKKGGT [Peptide R3P20]",
    "assayed target": "PACAP-R3 (Homo sapiens)",
    "pEC50": 8.85
  },
  {
    "substance": "HSDAVFTDNYTRLRKQMAVKKYLNDLKKGGT [Peptide R3P14]",
    "assayed target": "PACAP-R3 (Homo sapiens)",
    "pEC50": 7.77
  },
  {
    "substance": "HSDAVFTDNYTRLRKQLAAKKYLNDIKK-NH2 [Peptide R3P13]",
    "assayed target": "PACAP-R3 (Homo sapiens)",
    "pEC50": 8.30
  },
  {
    "substance": "HSDAVFTDNYTRLRKQMAAKKYLNSIRNRI [rR3P189]",
    "assayed target": "PACAP-R3 (Homo sapiens)",
    "pEC50": 10.40
  },
  {
    "substance": "HSDAVFTDNYTRLRKQMAVKKYLNSILK [Peptide R3P43]",
    "assayed target": "PACAP-R3 (Homo sapiens)",
    "pEC50": 10.10
  },
  {
    "substance": "HSDAVFTDNYTRLRKQMAAKKYLNSIKNDR [Peptide R3P136]",
    "assayed target": "PACAP-R3 (Homo sapiens)",
    "pEC50": 9.52
  },
  {
    "substance": "HSDKIFTDSYSRYRKQMAVKKYLAAVL-NH2 [PAC4]",
    "assayed target": "PACAP-R3 (Homo sapiens)",
    "pEC50": 8.15
  }
]
